All figures here come from the supplement of paper PMC4862054.

- System: BT-549
- ASSAY_NOTES: normalised viability (% of control), CellTiter-Blue; higher = more viable cells (100 = DMSO, 0 = benzethonium chloride kill control)
- PARTICULARS: incubation time: 72 h
EXPERIMENTAL_READOUT: normalised viability (%)
Write down the numeric answer in % and omit the unit.

| MOLECULE | ASSAY_VALUE |
| --- | --- |
| Oc1ccc2c(c1)CC[C@H](c1ccccc1)[C@@H]2c1ccc(OCCN2CCCC2)cc1 [Lasofoxifene] (0.1 nM) | 114 |
| S=P(N1CC1)(N1CC1)N1CC1 [Thio-TEPA] (10 nM) | 106 |
| CNC(=O)c1cc(Oc2ccc(NC(=O)Nc3ccc(Cl)c(C(F)(F)F)c3)c(F)c2)ccn1 [Regorafenib] (1 nM) | 102 |

Query: Could you tell me which normalised viability is on file for COCC[n+]1c2c(n(Cc3cnccn3)c1C)C(=O)c1ccccc1C2=O [YM155] (1 nM) ?
Response: 102

###

normalised response: recorded values
- Tested on: MDA-MB-436
- ASSAY_NOTES: normalised response (% of control), CellTox Green; higher = less cell death (100 = DMSO, 0 = benzethonium chloride kill control)
- PARTICULARS: incubation time: 72 h
A number alone suffices; assume %.

The following compounds have reported results that may help.
| COMPOUND | RESULT_UNIT | normalised response |
| --- | --- | --- |
| O=C(/C=C/c1cccc(S(=O)(=O)Nc2ccccc2)c1)NO [Belinostat] (100 nM) | % | 93.2 |
| NC(=O)c1ccc(I)c([N+](=O)[O-])c1 [Iniparib] (100 nM) | % | 67.8 |
| CN(C)CCOc1ccc(/C(=C(/CCCl)c2ccccc2)c2ccccc2)cc1 [Toremifene] (1000 nM) | % | 70.4 |
| O=P1(N(CCCl)CCCl)NCCCO1 (stereo unspecified) [Cyclophosphamide] (4000 nM) | % | 97.3 |
| CO[C@H]1C[C@@H]2CC[C@@H](C)[C@@](O)(O2)C(=O)C(=O)N2CCCC[C@H]2C(=O)O[C@H]([C@H](C)C[C@@H]2CC[C@@H](OP(C)(C)=O)[C@H](OC)C2)CC(=O)[C@H](C)/C=C(\C)[C@@H](O)[C@@H](OC)C(=O)[C@H](C)C[C@H](C)/C=C/C=C/C=C/1C [Ridaforolimus] (10 nM) | % | 88.2 |

Pending compound:
Query: Please look up its normalised response: N#Cc1ccc(COC[C@H]2O[C@@H](n3c(NCc4ccc(Cl)c(Cl)c4)nc4c(N)ncnc43)[C@H](O)[C@@H]2O)cc1 (100 nM)
Response: 96

###

Each entry below carries its recorded drug sensitivity score.
- System: MDA-MB-468
- ASSAY_NOTES: drug sensitivity score (DSS), CellTiter-Glo (DSS (AUC-based score)); higher = stronger drug effect (viability inhibition or cytotoxicity); extreme values may be limits of the assay
- PARTICULARS: incubation time: 72 h

| CHEMICAL_STRING | drug sensitivity score |
| --- | --- |
| CCn1c(-c2nonc2N)nc2cnc(Oc3cccc(NC(=O)c4ccc(OCCN5CCOCC5)cc4)c3)cc21 | 0 |
| CCOC(=O)CCNc1cc(N2CCc3ccccc3CC2)nc(-c2ccccn2)n1 | 19.9 |
| C=C1C[C@@H]2[C@H](CC[C@]3(C)C(=O)CC[C@@H]23)[C@@]2(C)C=CC(=O)C=C12 | 0 |
| Cc1ccc(NC(=O)c2ccc(CN3CCN(C)CC3)cc2)cc1Nc1nc(-c2cccnc2)cs1 | 4.71 |

Turning now to a further record.
Query: Which drug sensitivity score is listed for "CN(C)c1nc(N(C)C)nc(N(C)C)n1" ?
Response: 0

###

normalised response by entry:
- Test system: MDA-MB-453
- ASSAY_NOTES: normalised response (% of control), CellTox Green; higher = less cell death (100 = DMSO, 0 = benzethonium chloride kill control)
- PARTICULARS: incubation time: 72 h
All answers are understood in %, so give the number only.

Query: Quick check: normalised response of O=C(Nc1ccncc1)C(=O)c1cn(Cc2ccc(Cl)cc2)c2ccccc12 [Indibulin] (100 nM) ?
Response: 100

Query: Need normalised response, item CNC(=O)c1cccc(-c2ccc3c(N4CCOC[C@@H]4C)nc(N4CCOC[C@@H]4C)nc3n2)c1 [AZD2014] (1000 nM)
Response: 102

Query: Tell me the measured normalised response of Oc1ccc2c(c1)CC[C@H](c1ccccc1)[C@@H]2c1ccc(OCCN2CCCC2)cc1 [Lasofoxifene] (100 nM) , please.
Response: 88

Query: What value of normalised response has been reported for the following compound? CNC(=O)c1ccc(N2C(=S)N(c3ccc(C#N)c(C(F)(F)F)c3)C(=O)C23CCC3)cc1F [RD162] (1000 nM)
Response: 90.8

Query: Fill in the blank: the reported normalised response of CN(C)c1nc(N(C)C)nc(N(C)C)n1 [Altretamine] (100 nM) is ____.
Response: 100

Query: Form field: reported normalised response of CC(C)C[C@@H](C(=O)N[C@H](C(=O)OC1CCCC1)c1ccccc1)[C@H](O)C(=O)NO [Tosedostat] (1000 nM)
Response: 95.1

Query: State the recorded normalised response for this entry: COCC1(CO)C(=O)C2CCN1CC2 (stereo not drawn) [Prima-1 Met] (10000 nM)
Response: 104

Query: Recorded normalised response of NC(=O)c1ccc(I)c([N+](=O)[O-])c1 [Iniparib] (10000 nM) , please.
Response: 99.6

###

- Tested on: BT-549
- ASSAY_NOTES: normalised response (% of control), CellTiter-Glo; higher = more viable cells (100 = DMSO, 0 = benzethonium chloride kill control)
- PARTICULARS: incubation time: 72 h
Group membership follows normalised response per the scheme low: < 40%; mid: ≥ 40% and < 80%; high: ≥ 80%

| COMPOUND | DISCRETE_LABEL |
| --- | --- |
| S=P(N1CC1)(N1CC1)N1CC1 [Thio-TEPA] (50000 nM) | mid |
| CNC(=O)c1ccc(N2C(=S)N(c3ccc(C#N)c(C(F)(F)F)c3)C(=O)C23CCC3)cc1F [RD162] (10000 nM) | high |
| COc1cc2ncnc(Nc3ccc(F)c(Cl)c3)c2cc1OCCCN1CCOCC1 [Gefitinib] (10000 nM) | mid |
| COCC[n+]1c2c(n(Cc3cnccn3)c1C)C(=O)c1ccccc1C2=O [YM155] (10000 nM) | low |

Query: Which class is correct for the following compound? CNC(=O)c1cc(Oc2ccc(NC(=O)Nc3ccc(Cl)c(C(F)(F)F)c3)c(F)c2)ccn1 [Regorafenib] (10000 nM)
Response: mid

Query: Which normalised response category applies to c1ccc2c(CCNc3ccc(Nc4ccncc4)cc3)c[nH]c2c1 [Serdemetan] (10000 nM) here?
Response: low

Query: Could you place CN(C)c1nc(N(C)C)nc(N(C)C)n1 [Altretamine] (10000 nM) in its proper category? Many thanks.
Response: high

Query: Class label required: CNC(=O)c1cccc(-c2ccc3c(N4CCOC[C@@H]4C)nc(N4CCOC[C@@H]4C)nc3n2)c1 [AZD2014] (10000 nM)
Response: low

Query: Hey, which category is C=C1C[C@@H]2[C@H](CC[C@]3(C)C(=O)CC[C@@H]23)[C@@]2(C)C=CC(=O)C=C12 [Exemestane] (10000 nM) in, do you know?
Response: high

Query: Using the reported normalised response, which band applies to COc1cc2c(NC3CCN(C(C)C)CC3)nc(N3CCC(F)(F)CC3)nc2cc1OCCCN1CCCC1 [UNC0642] (10000 nM) ?
Response: mid

###

- Test system: MDA-MB-231
- ASSAY_NOTES: normalised viability (% of control), CellTiter-Blue; higher = more viable cells (about 100 = DMSO control)
- PARTICULARS: 100 nM; incubation time: 72 h
Measured normalised viability values are reported for all entries that follow.
Note: unit % is implicit; provide only the numeric part.

Previously resolved entries follow.
| CHEMICAL_STRING | normalised viability [%] |
| --- | --- |
| COCC[n+]1c2c(n(Cc3cnccn3)c1C)C(=O)c1ccccc1C2=O | 1.71 |
| C=C1C[C@@H]2[C@H](CC[C@]3(C)C(=O)CC[C@@H]23)[C@@]2(C)C=CC(=O)C=C12 | 99.2 |

Query: # query: normalised viability of entry "CC(C)C[C@@H](C(=O)N[C@H](C(=O)OC1CCCC1)c1ccccc1)[C@H](O)C(=O)NO"
Response: 72.6

###

Items are presented alongside their recorded normalised response.
- System: MDA-MB-468
- ASSAY_NOTES: normalised response (% of control), CellTiter-Glo; higher = more viable cells (100 = DMSO, 0 = benzethonium chloride kill control)
- PARTICULARS: incubation time: 72 h
Field: numeric (%). Do not append units.

Record excerpt, results attached:
| COMPOUND | TEST_TARGET | RESULT_UNIT | ASSAY_VALUE |
| --- | --- | --- | --- |
| c1ccc2c(CCNc3ccc(Nc4ccncc4)cc3)c[nH]c2c1 [Serdemetan] (1000 nM) | MDA-MB-468 | % | 77.8 |
| CNC(=O)c1ccc(N2C(=S)N(c3ccc(C#N)c(C(F)(F)F)c3)C(=O)C2(C)C)cc1F [Enzalutamide] (1000 nM) | MDA-MB-468 | % | 92.6 |
| COc1cc2c(NC3CCN(C(C)C)CC3)nc(N3CCC(F)(F)CC3)nc2cc1OCCCN1CCCC1 [UNC0642] (1 nM) | MDA-MB-468 | % | 95.9 |
| COc1cc(OC2CCN(C)CC2)ccc1Nc1ncc2c(n1)n(C1CCCC1)c(=O)n2C [AZ 3146] (10 nM) | MDA-MB-468 | % | 111 |
| COc1cc(O)c2c(c1)/C=C/C[C@H](O)[C@H](O)C(=O)/C=C\C[C@H](C)OC2=O [(5Z)-7-Oxozeaenol] (10 nM) | MDA-MB-468 | % | 100 |

Query: State the recorded normalised response for this entry: NC(=O)c1ccc(I)c([N+](=O)[O-])c1 [Iniparib] (1 nM)
Response: 94.8

Query: What measured normalised response goes with NC(=O)c1ccc(I)c([N+](=O)[O-])c1 [Iniparib] (10 nM) ?
Response: 90.7

Query: Which normalised response reading was recorded for the compound COc1cc2ncnc(Nc3ccc(F)c(Cl)c3)c2cc1OCCCN1CCOCC1 [Gefitinib] (1 nM) ?
Response: 105

Query: Record request: normalised response value, item COc1cc(OC2CCN(C)CC2)ccc1Nc1ncc2c(n1)n(C1CCCC1)c(=O)n2C [AZ 3146] (1 nM)
Response: 101

Query: Param item = Cc1[nH]c2ccccc2c1CCNCc1ccc(/C=C/C(=O)NO)cc1 [Panobinostat] (1 nM) ; retrieve measured normalised response.
Response: 103

Query: Which normalised response is reported for this compound? Nc1cc(C(F)(F)F)c(-c2cc(N3CCOCC3)nc(N3CCOCC3)n2)cn1 [Buparlisib] (1000 nM)
Response: 82.9
